Cited source: PubChem BioAssay

- RUN_DESCRIPTION: E. coli growth modulation, two-sided OD650, primary screen, E. coli filamentation project, strain DRC41, 24 h (AID 1093);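 note: MC1000 strain lacking acrAB efflux and sulA so SOS filamentation is blocked; test concentration not given here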
- ASSAY_CONTEXT: OD650, 24 h, higher = more signal, called active from +8 up or from −8 down
Would you mind labelling by z-score? At or over -0.3 is fulfilled, under is not fulfilled.

For this molecule, is measured z-score -0.3 or higher? `CCOC(=O)C1=CC[C@@H](c2ccccc2)N(S(=O)(=O)c2ccc(C)cc2)[C@H]1C`
not fulfilled

Would you say `C[N+](C)(C)CCCCNC(=O)[C@H]1C[C@H]2C(=O)NCC(=O)N2[C@H]1c1cccc(OCCO)c1` shows z-score at minimum -0.3?
fulfilled

Could you please find out whether `O=C1c2ccccc2[C@](Cc2ccccc2I)(C(=O)NCC(F)(F)F)[C@H](c2ccc(CO)cc2)N1Cc1ccccc1C(F)(F)F` has z-score that meets -0.3 or exceeds it?
fulfilled

Quick check: does `[N-]=[N+]=NCc1ccccc1C[C@]1(C(=O)N2CCCCC2)N=C(c2ccc(OCCCO)cc2)O[C@H]1c1ccccc1CN=[N+]=[N-]` have z-score greater than or equal to -0.3?
fulfilled

Quick check: does `COc1cccc([C@@H]2[C@@H](C)CC[C@H]3C(=O)N4[C@H](c5cccc(OC)c5)[C@@H](C)CC[C@H]4C(=O)N23)c1` have z-score greater than or equal to -0.3?
fulfilled

Does z-score meet or surpass -0.3 for `C=CCOC(=O)[C@@H]1[C@H]2C(=O)O[C@H](c3ccccc3)[C@H](c3ccccc3)N2[C@H](c2ccc(OCCOC(=O)[C@H]3C[C@H]4C(=O)N[C@@H](CCCCNC(C)=O)C(=O)N4[C@H]3c3ccc(O)cc3)cc2)[C@@]12C(=O)Nc1ccc(I)cc12` ?
not fulfilled

----------
Provide the reported z-score of each item.
- RUN_DESCRIPTION: RPMI8226 myeloma cell viability, profiling panel, resazurin fluorescence, basal, 24 h, PK04 Diversity Set (AID 1180);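 note: RPMI8826 multiple myeloma cell line at 5000 cells per well; test concentration not given here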
- ASSAY_CONTEXT: higher = more signal
Answer as a number with no unit attached.

Would you kindly share the measured z-score for C=CCC(OC(C)=O)[C@@H]1[C@@H](N(Cc2ccc(-c3ccccc3)cc2)C(=O)c2ccc(C)cc2)c2cc(OCCCO)ccc2N1C(=O)c1ccc(-c2ccccc2)cc1 (some centres not stated) ?
1.51

Record request: z-score value, item `COc1ccc([C@H]2C[C@H]3C(Br)=C[C@]2(OC)C(=O)[C@]32CO2)cc1`
-0.139

Which z-score is reported for this compound? `C=CCC1=C[C@H]2[C@H]([C@@H]3C=C[C@]2(CC=C)C(=O)[C@]32CO2)[C@@]2(CO2)C1=O`
-1.12

Would you mind telling me what z-score value was observed for `O=C1O[C@@H](c2ccccc2)[C@@H](c2ccccc2)N2[C@@H](c3ccc(O)cc3)[C@]3(C(=O)Nc4ccccc43)[C@@H](C(=O)N3CCN(c4ncccn4)CC3)[C@H]12` ?
-0.442

Using the record for `CCCNC(=O)[C@@H]1c2ccccc2C(=O)N(C2CCCCC2)[C@H]1c1ccc(CO)cc1` , report its z-score.
-0.154

Which z-score is listed for `COC(=O)[C@H]1[C@@H]2COc3ccccc3[C@H]2N[C@H]1C(=O)OC` ?
-0.139

Can you share its z-score? I mean this compound: `C=CC[C@]1(C(=O)N2CCCCC2)N=C(c2ccc(OCCCO)cc2)O[C@H]1c1ccccc1N=[N+]=[N-]`
-1.15
